- Test system: SNB-19 CNS
- test: NCI tumour cell line growth inhibition, 48 h
Reported TGI by item:
Give the number; µM is assumed, so skip it.

{"columns": ["compound", "result value"],
 "data": [
  ["COc1ccc(-c2nc(/C=C3\\SC(=NCc4ccccc4)NC3=O)c3ccccn23)cc1", 9.68],
  ["CCN(CC)CCCCCCNc1cc(OC)cc2cccnc12", 30.8],
  ["CC(=O)NC1C(OCc2ccccc2)OC(CO)C(O)C1OC(C)C(=O)NC(C)C(=O)NC(CCC(=O)NCCCCNc1c2ccccc2nc2cccc([N+](=O)[O-])c12)C(N)=O (stereo not given)", 0.242]
]}

stdin: Give TGI (SNB-19 CNS) of the following compound: C[N+](C)(C)CC1CCCC1=O (stereo not given)
stdout: 50.8

* * *

- System: TK-10 renal
- test: NCI tumour cell line growth inhibition, 48 h; in the data active = GI50 below about 0.43 µM; inactive = the rest
I would appreciate it if you answered using one of these outcomes: 1 (yes) for active, 0 (no) for inactive

{"columns": ["compound", "cat"],
 "data": [
  ["CC1OC(OC2C(O)CC(OC3C(O)CC(OC4CCC5(C)C(CCC6C5CC(O)C5(C)C(C7=CC(=O)OC7)CCC65O)C4)OC3C)OC2C)CC(O)C1O (configuration not stated)", "1 (yes)"],
  ["N#CCCN1C/C(=C/c2ccc(Cl)cc2)C(=O)/C(=C/c2ccc(Cl)cc2)C1", "0 (no)"],
  ["C[C@]12CC[C@@H]3c4cc(OC(F)F)c(OS(N)(=O)=O)cc4CC[C@H]3[C@@H]1CC[C@@H]2O", "0 (no)"],
  ["Cc1cc(N(CCCNc2ccnc3cc(Cl)ccc23)Cc2ccco2)nc(N2CCN(C)CC2)n1", "0 (no)"],
  ["COC(=O)c1cc2c(cc1Cl)SC1=NN(C)C(N(C)C)N1S2(=O)=O (configuration not stated)", "0 (no)"],
  ["COC(=O)[C@H]1CCCN1C(=O)[C@H]1CCCN1C(=O)[C@@H](Cc1c[nH]c2ccccc12)NC(=S)Nc1cc(C(F)(F)F)cc(C(F)(F)F)c1", "0 (no)"],
  ["Oc1c(I)cc(I)c2cccnc12", "0 (no)"],
  ["Oc1ccc(C(c2ccc(O)cc2)c2ccc(Br)cn2)cc1", "1 (yes)"],
  ["C(=N/N(Cc1ccccc1)Cc1ccccc1)/c1ccccc1", "0 (no)"],
  ["Cc1ccc(-c2nc([P+](c3ccccc3)(c3ccccc3)c3ccccc3)c(S(=O)(=O)c3ccc(C)cc3)o2)cc1", "0 (no)"]
]}

stdin: Entry `CC(C)(O)CNc1nc(Nc2ccnc(C(F)(F)F)c2)nc(-c2cccc(C(F)(F)F)n2)n1` : call = ?
stdout: 0 (no)

stdin: Can you look up the reported call for `Cc1cc(C)nc(SC2=C(Nc3cc(Cl)ccc3O)C(=O)N(Cc3ccccc3)C2=O)n1` for me?
stdout: 0 (no)

* * *

- System: SK-MEL-2 melanoma
- test: NCI tumour cell line growth inhibition, 48 h
measurement kind: TGI

{"columns": ["compound", "assay system", "TGI"],
 "data": [
  ["COC(=O)[C@@]1(C(C)CC(=O)O)CCCCC1=O (stereo not given in full)", "SK-MEL-2 melanoma", "> 100 µM"]
]}

stdin: Would you mind telling me what TGI value was observed for `CCOC(=O)C1(F)S(=O)(=O)OCCOS1(=O)=O` ?
stdout: > 100 µM

stdin: Can you share its TGI? I mean this compound: `COc1ccc(/C(Br)=C2\OC(=O)c3ccccc32)cc1`
stdout: > 10 µM

stdin: // TGI lookup, key: `CSC(=S)Nc1cccc(C)n1`
stdout: > 100 µM

stdin: Reported TGI, compound `COC(=O)CCCCC(=O)c1c(C)[nH]c(/C=C2\N=C(c3ccc[nH]3)C=C2OC)c1C` : ____
stdout: 1.83 µM

stdin: Consider the compound `CC(C)(C)C1=CC(C)(n2[nH]c(=O)n(-c3ccccc3)c2=O)C=C(C(C)(C)C)C1=O` and give its measured TGI.
stdout: > 100 µM

stdin: Bench note: what TGI did `O=C(N/N=C/c1ccc([N+](=O)[O-])cc1)Nc1ccc(C(=O)O)cc1` show?
stdout: 83.9 µM

stdin: Recorded TGI for O=C(CC1SC(=Nc2ccccc2Cl)NC1=O)Nc1ccc(Cl)cc1Cl (stereo not given) , please?
stdout: > 100 µM

stdin: Which value of TGI has been reported for `Cc1c(-c2ccccc2)[nH]c2cc(Cl)ccc2c1=O` in the records?
stdout: > 100 µM

stdin: Sample `O=c1c2cc(S(=O)(=O)O)ccc2nc(COc2ccc(Oc3ccc(Cl)cc3Cl)cc2)n1-c1ccc(Oc2ccc(Cl)cc2)cc1Cl` — what was its TGI?
stdout: 32.2 µM

* * *

- Tested on: OVCAR-8 ovarian
- test: NCI tumour cell line growth inhibition, 48 h
measurement kind: TGI

{"columns": ["molecule", "result value"],
 "data": [
  ["O=C(/C=C/c1ccccc1)Oc1ccc(C(=O)/C=C/c2ccc(Cl)cc2)cc1", "> 100 µM"]
]}

stdin: Requested read-out: TGI. Entry: O=[N+]([O-])c1ccc(OC2CC3C4C=CC3C2C4)c([N+](=O)[O-])c1 (centres undefined)
stdout: > 100 µM

stdin: Entry `CC1=NN(c2nc(N)nc(/C(C#N)=C\c3csc([N+](=O)[O-])c3)n2)C(C)(C)C1` has what TGI?
stdout: 64.7 µM

stdin: Requested read-out: TGI. Entry: O=C(O)c1cccc(C(=O)O)c1S(=O)Cc1ccccc1 (centres undefined)
stdout: > 100 µM

stdin: Could you tell me which TGI is on file for C#CCNC(=O)[C@H](CC)[C@H]1CC[C@H](C)[C@H]([C@@H](C)[C@H](O)[C@H](C)C(=O)[C@H](CC)C2O[C@]3(C=CC(=O)[C@]4(CC[C@@](C)([C@H]5CC[C@](O)(CC)[C@H](C)O5)O4)O3)[C@H](C)C[C@@H]2C)O1 (some centres undefined) ?
stdout: 35.8 µM

stdin: For the molecule COc1cc(C(C)O)c[n+](Cc2ccccc2)c1 (centres undefined) , what TGI is on record?
stdout: > 31.6 µM

stdin: Need TGI of `C[CH2][Sn]([CH2]C)([O]C(=O)c1ccccc1OC)[O][Sn]([CH2]C)([CH2]C)[O]C(=O)c1ccccc1OC` , thanks.
stdout: > 100 µM

* * *

- Test system: COLO 205 colon
- test: NCI tumour cell line growth inhibition, 48 h; in the data active = GI50 below about 0.43 µM; inactive = the rest
// allowed return values: class 1 = active, class 0 = inactive

{"columns": ["molecule", "assay system", "cat"],
 "data": [
  ["Cc1cccc2c3c(sc12)C(c1ccc(Cl)cc1)C(C#N)=C(N)O3 (stereo not given)", "COLO 205 colon", "class 0"],
  ["COc1cc2c(cc1OC)-c1ncc3c(OC)c(OC)c(OC)cc3c1C2", "COLO 205 colon", "class 0"],
  ["CC1=C(CC(=O)c2cccc([N+](=O)[O-])c2)C(=O)c2ccccc2C1=O", "COLO 205 colon", "class 0"]
]}

stdin: Tell me the recorded outcome of this test for COC(=O)c1cc2c(cc1Cl)SC1=NN(C)C(N(C)C)N1S2(=O)=O (stereo not given) .
stdout: class 0

stdin: How was `CCc1cccc(C)c1NC(=O)c1sc2nc3c(cc2c1N)C(=O)CCC3` classified in this test?
stdout: class 1

stdin: // param item: `CC(=O)NCc1cccc(C#Cc2cncnc2Nc2ccc(OCc3cccc(F)c3)c(Cl)c2)c1` ; yields the recorded call
stdout: class 0

stdin: How did this test come out for `Nc1nc(Nc2ccccc2SSc2ccccc2Nc2nc(N)nc(C(Cl)(Cl)Cl)n2)nc(C(Cl)(Cl)Cl)n1` ?
stdout: class 0

stdin: What call does the record list for `COc1ccc(/C=C(\C#N)n2nnc3c(F)cccc32)cc1` ?
stdout: class 1

stdin: Record request — test call for `Cc1cc(C)nc(SC2=C(Nc3cc(Cl)ccc3O)C(=O)N(Cc3ccccc3)C2=O)n1`
stdout: class 0

stdin: Test call, this molecule: `Cc1ccc(-c2nc([P+](c3ccccc3)(c3ccccc3)c3ccccc3)c(S(=O)(=O)c3ccc(C)cc3)o2)cc1`
stdout: class 0

stdin: How did this test come out for `COC(=O)CCCCC(=O)c1c(C)[nH]c(/C=C2\N=C(c3ccc[nH]3)C=C2OC)c1C` ?
stdout: class 0

stdin: What did this assay record as the result for CCC1(O)C(=O)OCc2c1cc1n(c2=O)Cc2cc3c(NC(=O)CN)cccc3nc2-1 (stereo not given) ?
stdout: class 0

* * *

# key: entry, value: TGI
- Tested on: HOP-62 NSCLC
- test: NCI tumour cell line growth inhibition, 48 h

Below, 5 compounds whose answers are already recorded.
{"columns": ["compound", "result value"],
 "data": [
  ["COc1ccc(Oc2cccc(C3C4C(=O)N(c5ccc(C)c(Cl)c5)C(=O)C4ON3C(C(N)=O)c3ccccc3)c2)cc1 (stereo unspecified)", "> 50 µM"],
  ["O[C@@]12Cc3c([nH]c4ccccc34)[C@@H]3Oc4cccc5c4[C@@]31CCN(CC1CC1)[C@@H]2C5", "46.6 µM"],
  ["CCN(CC)CCCCCCNc1cc(OC)cc2cccnc12", "5.11 µM"],
  ["CCOC(=O)/C=C/CCO[Si](C)(C)C(C)(C)C", "> 100 µM"],
  ["CSC(=S)Nc1cccc(C)n1", "> 100 µM"]
]}

stdin: Which TGI value is on record for `COc1cc2nc(-c3cc(F)ccc3O)nc(N[C@@H]3CNC[C@H]3C(C)(C)O)c2cc1OC` ?
stdout: 2.76 µM

stdin: Endpoint output: TGI of `Cc1cc(N(CCC#N)CCC#N)ccc1/C(N=Nc1cccc(Cl)c1)=N/NC(=O)c1cc(Cl)ccc1O` . Value?
stdout: 62 µM

stdin: Any idea what its TGI is? The compound is `Nc1nc(Nc2ccccc2SSc2ccccc2Nc2nc(N)nc(C(Cl)(Cl)Cl)n2)nc(C(Cl)(Cl)Cl)n1`
stdout: 6.33 µM

stdin: May I ask what TGI has been recorded for C[N+](C)(C)c1ncnc2c1ncn2C1CC(O)C(CO)O1 (stereo unspecified) ?
stdout: > 100 µM

stdin: Dear colleague, I am looking for the recorded TGI of the following compound: `[N-]=[N+]=NI1OC(=O)c2ccccc21`
stdout: > 100 µM

stdin: Need TGI, item `O=C(O)Cc1cccnc1`
stdout: > 100 µM

stdin: Quick one: TGI of `O=C(/C=C/c1cccc(O)c1)c1cccc(-n2cc(-c3ccccc3)[nH]c2=O)c1` ?
stdout: > 25.9 µM

stdin: What does the data say about its TGI? Entry: `Nc1nc(Nc2ccccc2)c2[nH]cnc2n1`
stdout: > 100 µM

stdin: Value lookup for TGI; key = `O=C(c1cccs1)N(C(=S)OCCOc1ccccc1)c1ccccc1`
stdout: 72.5 µM

stdin: Would you kindly share the measured TGI for NC(=O)c1csc(C2OC(COP(=O)(O)CP(=O)(O)OCC3OC(n4cnc5c(N)ncnc54)C(O)C3O)C(O)C2O)n1 (stereo unspecified) ?
stdout: > 100 µM

stdin: Entry `CCOC(=O)c1nc2cc(C(F)(F)F)ccc2nc1Nc1ccc(OC)cc1` : reported TGI = ?
stdout: > 100 µM

stdin: So what's the measured TGI for this one? `OC(C#Cc1ccccc1)(c1ccccc1)c1ccccc1`
stdout: > 100 µM
